Where these numbers come from: patent US5093475A

METHOD NOTES: Glutathione-induced TNB release from 791/iminothiolane/TNB (disulfide stability)
Type: physicochemical
MEASUREMENT SETUP: ratio of TNB release rate constants
Structures can show the parent of a compound that is named as a salt.
Consider the following compounds; for each one, report its Increase in Disulfide Stability Relative to: 2IT.
One number for each entry.

COMPOUND | OBSERVED MEASUREMENT
Cl.N=C1CCC(c2ccccc2)S1 (centres unmarked) [phenyl-2IT, 5-Phenyl-2-iminothiolane hydrochloride] | 20.6
O=C(CCSSc1ccccn1)ON1C(=O)CCC1=O [SPDP, reference compound] | 3.6
Cl.N=C1CCCS1 [Compound 2IT, 2-iminothiolane hydrochloride, reference compound] | 1.0
CC(C)(C)C1CCC(=N)S1.Cl (centres unmarked) [t-butyl-2IT, 5-t-Butyl-2-iminothiolane hydrochloride] | 57.4
Cl.N=C1CCC2(CCCCC2)S1 [spiro-2IT] | 8564.0

Return reported Increase in Disulfide Stability Relative to: 2IT values for all items listed beneath this line.
1. CC1(C)CCC(=N)S1.Cl [dimethyl-2IT]
2. CC1CCC(=N)S1.Cl (centres unmarked) [methyl-2IT, 5-Methyl-2-iminothiolane hydrochloride]
3. N=C1CC2CCCCC2S1 (centres unmarked) [ring-2IT, hydrochloride]

7246.0
12.5
11.5

----------
METHOD NOTES: Hydrolysis of the 2-iminothiolane rings in PBS (pH 7.2), monitored at 248nm
Format: physicochemical
MEASUREMENT SETUP: 25° C.
Where a name gives a salt, the structure may show the parent alone.
Consider the following compounds; for each one, report its Reaction rate, Hydrolysis.
Give bare numbers, in %/hr.

// below: answered compounds
COMPOUND | MEASURED ATTRIBUTE | OBSERVED MEASUREMENT
Cl.N=C1CCC(c2ccccc2)S1 (stereo not shown) [phenyl-2IT, 5-Phenyl-2-iminothiolane hydrochloride] | Reaction rate, Hydrolysis | 1.5
Cl.N=C1CCCS1 [Compound 2IT, 2-iminothiolane hydrochloride, reference compound] | Reaction rate, Hydrolysis | 10.2
CC1CCC(=N)S1.Cl (stereo not shown) [methyl-2IT, 5-Methyl-2-iminothiolane hydrochloride] | Reaction rate, Hydrolysis | 5.4
CC1(C)CCC(=N)S1.Cl | Reaction rate, Hydrolysis | 6.9

Return reported Reaction rate, Hydrolysis values for all items listed beneath this line.
1. N=C1CC2CCCCC2S1 (stereo not shown) [ring-2IT, hydrochloride]
2. Cl.N=C1CCC2(CCCCC2)S1
3. CC(C)(C)C1CCC(=N)S1.Cl (stereo not shown) [t-butyl-2IT, 5-t-Butyl-2-iminothiolane hydrochloride]

1: 13.4; 2: 5.6; 3: 6.1

----------
Consider the following compounds; for each one, report its Increase in Disulfide Stability Relative to: SPDP.
METHOD NOTES: Glutathione-induced TNB release from 791/iminothiolane/TNB (disulfide stability)
Assay type: physicochemical
MEASUREMENT SETUP: ratio of TNB release rate constants, vs 791/SPDP/TNB
Description: d. The initial rate of TNB release from 791/iminothiolane/TNB induced by glutathione. Samples contained ca. 10 μM of protein-S-S-TNB and 200 μM of glutathione in PBS containing 0.5 mM EDTA, pH 7.25, and were monitored at 412nm. FIG. 1 presents the results graphically. The relative increase in disulfide stability was also compared to 791/SPDP/TNB, and was determined as for 2IT. […]
Counter-ions that a name gives are not always drawn.

COMPOUND | OBSERVED MEASUREMENT
Cl.N=C1CCC(c2ccccc2)S1 (centres unmarked) [phenyl-2IT, 5-Phenyl-2-iminothiolane hydrochloride] | 5.8
N=C1CC2CCCCC2S1 (centres unmarked) [ring-2IT, hydrochloride] | 3.2
CC1(C)CCC(=N)S1.Cl | 2046.0
Cl.N=C1CCCS1 [Compound 2IT, 2-iminothiolane hydrochloride, reference compound] | 0.3
O=C(CCSSc1ccccn1)ON1C(=O)CCC1=O [SPDP, reference compound] | 1.0

Return reported Increase in Disulfide Stability Relative to: SPDP values for all items listed beneath this line.
1. CC1CCC(=N)S1.Cl (centres unmarked) [methyl-2IT, 5-Methyl-2-iminothiolane hydrochloride]
2. Cl.N=C1CCC2(CCCCC2)S1
3. CC(C)(C)C1CCC(=N)S1.Cl (centres unmarked) [t-butyl-2IT, 5-t-Butyl-2-iminothiolane hydrochloride]

1: 3.5; 2: 2418.0; 3: 16.2
